Values were extracted from PubChem BioAssay AID977622.

Exercise: for every item that follows, state its recorded AC50.
# Test system: E. coli WT ribosome GFP fluorescence, mixed culture, 24 h
# testProtocol: wild-type E. coli growth inhibition versus h38 humanized strain – h38 mutant RFP, wild-type GFP, cherry-pick, dose response (AID 977622)
# studyConditions: E. coli mixed culture, 24 h; measured here: total growth OD600
Records with an inconclusive call do not appear.

Past entries and their recorded results:
COC(=O)C[C@H]1C[C@@H]2c3cc(NC(=O)Nc4ccc(C(F)(F)F)cc4)ccc3O[C@@H]2[C@H](CO)O1	> 100 µM
O=C(O)CSc1nnc(-c2ccc(Cl)cc2Cl)n1-c1ccc(Br)cc1	> 100 µM
COc1cc(C(=O)NCCc2c[nH]c3ccccc23)ccc1OCc1c(C)noc1C	> 100 µM
COC(=O)c1ccc(CCc2cc(O)c(Br)cc2O)cc1	46.5 µM
COc1ccc(NC(=O)CSc2n[nH]c(-c3ccncc3)n2)c([N+](=O)[O-])c1	> 100 µM
CCNc1nc(N)c(C(=O)C23CC4CC(CC(C4)C2)C3)s1	> 100 µM
CSc1ccc(CN(C)C(=O)C(c2ccccc2)c2ccccc2)cc1	> 100 µM
O=C1c2cccc3cccc(c23)C(=O)N1CCCn1ccnc1	51.6 µM

// batch mode: one AC50 value per listed entry
1. CCN(CC)c1nc(Oc2ccc(C(=O)OC)cc2)nc(N2CCOCC2)n1
2. Cc1cccc(N2CCN(Cc3nc(-c4ccc(F)cc4F)oc3C)CC2)n1

["> 100 µM", "> 100 µM"]
